biological target: IFN-α 2b (Homo sapiens); construct: purchased Sigma-Aldrich SRP4595; host or cells: E. coli; assay: Microscale thermophoresis (MST) binding affinity of FILs with labelled IFN-α 2b; conditions: assay 70 − 2.1 × 10^−3 mM FIL; labelled IFN-α 2b 2.7 μM; 5 mM NaH2PO4 pH 7.4; 25 °C; ± = Kd confidence of the fitting
Reported Property: pKd
Units for pKd: none; it is -log10 of a concentration expressed in mol/L.

Using the record for O=S(=O)(O)C(F)(F)C(F)(F)C(F)(F)C(F)(F)F [[N1112(OH)][C4F9SO3]] , report its pKd. 6.22
